Biological target: T1, human EphA10 (Homo sapiens, UniProt Q5JZY3)
T1 construct: a protein of the extracellular region of each human Eph receptor fused with the SEAP protein and the His tag; made in house; host or cells: Expi293F cells (culture supernatant)
T1 sequence (Q5JZY3 34-565 limits assumed): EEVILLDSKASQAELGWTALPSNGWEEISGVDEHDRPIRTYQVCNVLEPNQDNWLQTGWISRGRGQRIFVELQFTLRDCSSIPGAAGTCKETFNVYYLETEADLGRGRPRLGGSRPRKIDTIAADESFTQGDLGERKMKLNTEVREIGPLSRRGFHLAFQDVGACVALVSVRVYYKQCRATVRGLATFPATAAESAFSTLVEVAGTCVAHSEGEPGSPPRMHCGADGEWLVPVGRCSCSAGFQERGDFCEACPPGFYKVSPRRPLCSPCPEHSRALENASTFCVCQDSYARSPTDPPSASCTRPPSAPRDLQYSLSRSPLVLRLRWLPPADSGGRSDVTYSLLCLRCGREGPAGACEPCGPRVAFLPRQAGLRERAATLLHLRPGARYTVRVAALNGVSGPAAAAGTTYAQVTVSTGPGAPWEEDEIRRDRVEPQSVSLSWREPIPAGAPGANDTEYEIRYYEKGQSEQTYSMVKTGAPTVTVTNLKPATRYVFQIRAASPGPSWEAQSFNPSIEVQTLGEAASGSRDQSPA
Assay: Selectivity ELISA of humanized antibodies for human Eph receptor
Type: binding
Conditions: coated protein 1 nM
The following molecules are listed with their measured hEphA10-SEAP-: absorbance at 450 nm, percentage with respect to hEphA4-SEAP-His as 100% values.
Just the number please, in %, no unit attached.

QUERY: Given the molecule 67 (antibody, V domains shown, synthetic humanized antibody heavy chain variable region sequence; synthetic humanized antibody light chain variable region sequence) VH: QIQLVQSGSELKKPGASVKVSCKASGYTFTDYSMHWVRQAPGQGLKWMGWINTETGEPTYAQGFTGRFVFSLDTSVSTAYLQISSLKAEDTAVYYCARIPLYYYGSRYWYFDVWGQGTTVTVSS VL: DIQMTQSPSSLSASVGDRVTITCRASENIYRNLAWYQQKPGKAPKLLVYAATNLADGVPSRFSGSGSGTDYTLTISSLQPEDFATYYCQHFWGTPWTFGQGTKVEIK , what is its reported hEphA10-SEAP-: absorbance at 450 nm, percentage with respect to hEphA4-SEAP-His as 100%?
RESULT: 4.6

QUERY: For the molecule shown here, 160 (antibody, V domains shown, synthetic humanized antibody heavy chain variable region sequence; synthetic humanized antibody light chain variable region sequence) VH: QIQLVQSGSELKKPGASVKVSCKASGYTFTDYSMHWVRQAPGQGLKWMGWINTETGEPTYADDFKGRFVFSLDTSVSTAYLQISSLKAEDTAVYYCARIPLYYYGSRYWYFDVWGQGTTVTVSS VL: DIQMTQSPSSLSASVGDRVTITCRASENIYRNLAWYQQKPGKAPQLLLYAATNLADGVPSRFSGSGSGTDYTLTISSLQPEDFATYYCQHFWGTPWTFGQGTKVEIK , give the reported hEphA10-SEAP-: absorbance at 450 nm, percentage with respect to hEphA4-SEAP-His as 100%.
RESULT: 5.0

QUERY: Value lookup for hEphA10-SEAP-: absorbance at 450 nm, percentage with respect to hEphA4-SEAP-His as 100%; key = 88 (antibody, V domains shown, constant regions without entry; synthetic humanized antibody light chain variable region sequence; synthetic humanized antibody heavy chain variable region sequence) VL: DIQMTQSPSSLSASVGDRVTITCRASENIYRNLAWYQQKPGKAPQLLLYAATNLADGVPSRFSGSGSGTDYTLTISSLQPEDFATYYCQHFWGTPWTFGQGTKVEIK VH: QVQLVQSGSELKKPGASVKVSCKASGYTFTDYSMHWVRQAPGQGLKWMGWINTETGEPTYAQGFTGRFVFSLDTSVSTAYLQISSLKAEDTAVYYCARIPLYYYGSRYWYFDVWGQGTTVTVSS
RESULT: 5.8

QUERY: Entry 89 (antibody, V domains shown, constant regions without entry; synthetic humanized antibody light chain variable region sequence; synthetic humanized antibody heavy chain variable region sequence) VL: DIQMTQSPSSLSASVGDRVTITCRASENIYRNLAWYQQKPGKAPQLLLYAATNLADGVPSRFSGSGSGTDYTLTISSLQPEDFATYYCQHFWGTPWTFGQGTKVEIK VH: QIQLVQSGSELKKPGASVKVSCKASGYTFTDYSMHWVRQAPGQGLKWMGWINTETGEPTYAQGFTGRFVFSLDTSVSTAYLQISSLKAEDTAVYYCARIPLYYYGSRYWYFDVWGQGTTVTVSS has what hEphA10-SEAP-: absorbance at 450 nm, percentage with respect to hEphA4-SEAP-His as 100%?
RESULT: 5.7
